Molecular target: Sarcoplasmic/endoplasmic reticulum calcium ATPase 1 (Oryctolagus cuniculus) (UniProt P04191)
Sequence (P04191 whole entry): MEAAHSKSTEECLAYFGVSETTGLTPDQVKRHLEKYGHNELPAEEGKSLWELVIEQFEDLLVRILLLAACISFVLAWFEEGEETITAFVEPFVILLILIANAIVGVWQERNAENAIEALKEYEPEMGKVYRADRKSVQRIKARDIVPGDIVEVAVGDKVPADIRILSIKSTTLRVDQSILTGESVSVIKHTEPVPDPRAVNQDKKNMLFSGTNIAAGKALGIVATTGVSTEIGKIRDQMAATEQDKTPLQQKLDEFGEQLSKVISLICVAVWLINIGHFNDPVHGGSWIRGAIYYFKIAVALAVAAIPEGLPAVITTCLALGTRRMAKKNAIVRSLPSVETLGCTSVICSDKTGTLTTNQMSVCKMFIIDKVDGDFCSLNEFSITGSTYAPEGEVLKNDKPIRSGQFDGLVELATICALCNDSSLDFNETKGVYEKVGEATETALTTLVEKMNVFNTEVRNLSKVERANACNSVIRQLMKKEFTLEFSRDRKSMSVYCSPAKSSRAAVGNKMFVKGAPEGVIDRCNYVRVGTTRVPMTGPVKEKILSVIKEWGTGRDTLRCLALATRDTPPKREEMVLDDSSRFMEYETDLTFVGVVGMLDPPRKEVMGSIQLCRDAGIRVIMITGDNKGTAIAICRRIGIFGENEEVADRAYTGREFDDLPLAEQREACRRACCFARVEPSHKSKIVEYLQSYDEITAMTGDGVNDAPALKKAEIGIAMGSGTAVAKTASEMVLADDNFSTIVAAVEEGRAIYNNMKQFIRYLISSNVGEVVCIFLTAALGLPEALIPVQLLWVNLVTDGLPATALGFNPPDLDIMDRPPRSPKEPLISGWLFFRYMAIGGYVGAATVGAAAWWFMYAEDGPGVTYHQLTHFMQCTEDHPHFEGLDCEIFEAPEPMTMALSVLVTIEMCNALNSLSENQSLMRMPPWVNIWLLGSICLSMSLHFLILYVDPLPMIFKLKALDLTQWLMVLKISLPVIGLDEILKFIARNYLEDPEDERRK
Assay: Binding affinity to transmembrane region of SERCA1A ATP binding site in NewZealand rabbit SR vesicles assessed as conformational changes by measuring intrinsic Trp fluorescence at IC50 incubated for 30 mins by spectrofluorometric analysis
Active and inactive are the calls of the source. No cut-off for these calls is given here.
Your response should consist of one outcome taken from 1 for active, 0 for inactive

Tell me the assay call for `CC(C)=CCC/C(C)=C/Cc1cc([C@@H]2CC(=O)c3c(O)cc(O)cc3O2)c(O)cc1O` please.
1

Tell me the assay call for CC1(C)Oc2cc3oc(-c4cc(O)cc(O)c4)cc3cc2CC1O (stereo not drawn) [(+/-)-MORACIN P] please.
1

Tell me the assay call for `Cc1cc2c3c(c1)-c1c(O)cc(-c4cc5ccc(O)cc5o4)cc1O[C@@]3(c1ccc(O)cc1O)Oc1cc(O)ccc1-2` please.
0

Tell me the assay call for `COc1cc(O)c([C@@H]2CC(=O)c3c(O)cc(O)cc3O2)cc1C/C=C(\C)CCC=C(C)C` please.
1

Tell me the assay call for CC(C)=CCc1c(-c2ccc(O)cc2O)oc2c3c(cc(O)c2c1=O)OC(C)(C)C=C3 [MORUSIN] please.
1

Tell me the assay call for CC(C)(O)C1Cc2cc3cc(-c4cc(O)cc(O)c4)oc3cc2O1 (configuration not stated) [MORACIN O] please.
1

Tell me the assay call for `CC1=C[C@@H]2c3c(O)cc(-c4cc5ccc(O)cc5o4)cc3O[C@@]3(c4ccc(O)cc4O)Oc4cc(O)ccc4[C@@H](C1)[C@H]23` please.
0
